src = the supplement of paper PMC9170038

Hi there, I'd appreciate the recorded apparent KD of MS2 coat protein for every entry that follows.
Tested on: MS2 coat protein
Test: apparent KD of MS2 coat protein; designed switch direction (-1 OFF switch, 1 ON switch): -1; higher = weaker reporter binding
Conditions: Eterna round: R95; input ligand: none
Give bare numbers, in nM.

The cases that follow already have their apparent KD of MS2 coat protein on record.
>>> observed_value("UUAUCCGCUGAGGAUAUUAUCAGUGAGAGCUGAUGAGAAGGCGGUACAUGAGGAUCACCCAUGUCUAUGGGCAG [Ex-6 Malc#24] (puzzle: Exclusion 6)")
435
>>> observed_value("GACCUCACGGUCAGGAUAUCAGAACGGAAUGCGCAUGAGAAGGGACAUGAGGAUCACCCAUGUGGGCUCGUCGC [Eddionce] (puzzle: Brourd's mod of Exclusion 4)")
17.9
>>> observed_value("CUGGUCCGAGGAUAUAUUAAGUGAUACAUGAGGAUCACCCAUGUAAUUUGAUGGAUGUAAAUAGAAGGCGGACUAG [JL-ex5-3.10] (puzzle: Exclusion 5)")
45
>>> observed_value("GAAUACAAGUAAAGAUCCUACAUGAGGAUCACCCAUGUGCUCGUCUUGUAAAGUACUAUCACGAAAGUGAUAGUACA [Mat - Sensor v3 - turn-off var 1 - Eli Mod - D88] (puzzle: Sensor v3, turn-off variant 1)")
47.1

Moving on to another sequence below.
QUERY: Determine from records and report apparent KD of MS2 coat protein for UUUUUCGAACAAGCUACGUACAUGAGGAUCACCCAUGUCGGUAGAUUUGAGUAGGUUUGGAUGGAAGCUCGUCUUAU [JR_SV3TOV1_Sub085] (puzzle: Sensor v3, turn-off variant 1)
RESULT: 19.5

----------
Assignment: determine reported apparent KD of MS2 coat protein for the given sequences.
Test system: MS2 coat protein
Assay: apparent KD of MS2 coat protein; designed switch direction (-1 OFF switch, 1 ON switch): 1; higher = weaker reporter binding
Settings: input ligand: none
Answers are plain numbers, in nM.

Some entries whose results are on file:
>>> observed_value("GGUGCCAAUAAAGCCUACAUGAGGAUCACCCAUGUAUGUAGGCAGGAUAUCGUUUGCAAAGCAAACGAGAAGGGCUGAGGCACC [Mat - Same State NG 3 - JL Mod - D52] (Eterna round: R96, puzzle: Same State NG 3)")
38.8
>>> observed_value("GAGGGACAGACCAACAUGAGGAUCACCCAUGUCCUCGCAGGUCAGGAUAUUAUGAGGAUCACCCGUGAGAAGGGACGGUGAAUU (Eterna round: R96, puzzle: Same State NG 3)")
804
>>> observed_value("GUUACAUGAGGAUCACCCAUGUAUGUGUGGGAGUAAGUGUCUUAGGAUAUCUAGUAUUUAGUUUAAGAGAAGGAAGAUUGUUGU [JMF's solution 61] (Eterna round: R96, puzzle: Same State NG 3)")
88.2
>>> observed_value("GGAGCCAAGGCAGGAUAUUCAACAUGAGGAUCACCCAUGUGGGUAAUAAAGGCCAGAAGGCCUUGGGAGAAGGGCCAUGGCUCG [Xeonanis - 13 mod13] (Eterna round: R96, puzzle: Same State NG 2)")
17.7

Attention now shifts to the item below.
QUERY: Supply apparent KD of MS2 coat protein measured with MS2 coat protein for GUUACAUGAGGAUCACCCAUGUAUGUGUGGGAGUAAGUGUCUUAGGAUAUCUGUUAUUUAAUUUGAGAGAAGGAAGAUUGUUGU [JMF's solution 47] (Eterna round: R96, puzzle: Same State NG 3) .
RESULT: 89.1
